Hey, just so you know, these numbers are from the supplement of paper PMC6555819.

Test system: RXRa homodimer (NR concentration 180 nM)
assay_details: PBM binding z-score (relative to random genomic background probes); higher = stronger binding; sequences stand for … in GC…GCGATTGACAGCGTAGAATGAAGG
So basically every entry gets a class from its PBM binding z-score, ranges being class A = under 1, class B = from 1 up to 2, class C = 2 and over

>>> print(df.to_string())
                       chain_sequence  category_label
0  ATCTCTAGGTAAAAGTTCAGTCAATCCCGAGGAT         class B
1  CCTACCGGGCCATCAGGTCATTGATATCAACGTT         class B
2  AGACTGAGGTTAAGATCAGGGAAACAGAATACAT         class C
3  TGATATAGGTAAAGGTGAAAGTCGAACGATATGA         class C
4  GCTAGGAGGCCATTTGGGTCACTCAATGACGGGC         class A
5  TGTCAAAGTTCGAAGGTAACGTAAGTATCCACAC         class C
6  CCTACTGGGCCATCAGGTCATTGACATCAACGTT         class B
7  TGGCCTAGGTCATTGGGCCAGTATAGTACGCATC         class C
8  CCAGACAGCTGAAAGGTAACTCAGTCTGGTACGC         class A
